IC50 values by entry
- System: recombinant human Meningioma Expressed Antigen 5 (MGEA5), also referred to as O-GlcNAcase (OGA) (Homo sapiens)
- Construct: Full length OGA enzyme was purchased at OnGene (cat #TP322411); purchased OnGene (so in the source)
- Sequence (O60502 1-916): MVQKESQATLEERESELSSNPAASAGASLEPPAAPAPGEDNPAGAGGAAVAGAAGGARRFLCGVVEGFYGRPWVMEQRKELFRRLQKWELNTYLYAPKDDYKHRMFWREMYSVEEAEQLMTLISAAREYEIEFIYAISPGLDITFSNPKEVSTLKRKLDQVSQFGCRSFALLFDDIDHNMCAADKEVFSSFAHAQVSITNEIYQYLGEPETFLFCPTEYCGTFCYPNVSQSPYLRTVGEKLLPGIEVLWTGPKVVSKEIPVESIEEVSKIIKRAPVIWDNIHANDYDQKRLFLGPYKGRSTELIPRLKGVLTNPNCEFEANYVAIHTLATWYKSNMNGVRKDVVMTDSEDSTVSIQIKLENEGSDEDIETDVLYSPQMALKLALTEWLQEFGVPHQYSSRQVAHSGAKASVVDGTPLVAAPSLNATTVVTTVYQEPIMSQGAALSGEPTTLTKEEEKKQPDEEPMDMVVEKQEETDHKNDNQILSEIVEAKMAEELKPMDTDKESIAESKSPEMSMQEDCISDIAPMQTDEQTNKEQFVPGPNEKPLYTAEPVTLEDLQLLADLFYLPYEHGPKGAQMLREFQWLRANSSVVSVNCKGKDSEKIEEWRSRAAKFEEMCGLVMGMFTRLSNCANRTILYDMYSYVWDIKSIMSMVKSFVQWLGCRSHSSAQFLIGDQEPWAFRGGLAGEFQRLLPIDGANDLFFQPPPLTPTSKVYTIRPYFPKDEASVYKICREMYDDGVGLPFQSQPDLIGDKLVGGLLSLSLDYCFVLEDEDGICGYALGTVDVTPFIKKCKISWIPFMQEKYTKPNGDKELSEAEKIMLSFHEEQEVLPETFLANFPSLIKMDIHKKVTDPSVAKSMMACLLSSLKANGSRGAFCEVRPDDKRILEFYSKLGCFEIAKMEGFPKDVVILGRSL
- Run Description: OGA biochemical assay (inhibition of FM-GlcNAc hydrolysis, fluorescence)
- Test Context: read-out: Enzymatic hOGA, pIC50 (converted)
The figure you give is taken to be in nM; do not add the unit.

Reference set (3 entries):
| Molecule | Output Unit | IC50 |
| --- | --- | --- |
| Cc1cnc(OC2CCCN(C(C)c3ccc4c(n3)OCCO4)C2)c(C)n1 (stereo not shown) [Product 133] | nM | 15.8 |
| Cc1cc(NC[C@H]2CCCN(C(C)c3ccc4c(n3)OCCO4)C2)nc(C)n1 (stereo partly shown) [Product 157] | nM | 5.01 |
| COc1cc(OC[C@H]2CCCN([C@H](C)c3ccc4c(n3)OCCO4)C2)cc(C)n1 (racemic) [Product 110] | nM | 12.6 |

Turning now to a further molecule:
stdin: Tell me the measured IC50 of Cc1cc([C@@H]2CCCN(C(C)c3nc4c(cc3F)OCCO4)C2)cc(C)n1 (single isomer, unassigned) [Product 165] , please.
stdout: 63.1
